- Test system: HeLa
- measurementProtocol: Cytotoxicity activity against human HeLa cells after 24 hrs by MTT assay
- Assay type: functional, cell-based
measurementType: IC50 (nM)

smilesRepresentation	targetOrTestSystem	measureUnit	measuredNumber
C[C@]12CC[C@H](O)C[C@H]1CC[C@@H]1[C@@H]2CC[C@]2(C)[C@@H](c3ccc(=O)oc3)CC[C@]12O	HeLa	nM	594
C[C@]12CC[C@H](O[C@@H]3C[C@H](CO)[C@@H](O)[C@H](O)[C@H]3O)C[C@@H]1CC[C@@H]1[C@@H]2CC[C@]2(C)[C@@H](c3ccc(=O)oc3)[C@@H](O)C[C@]12O	HeLa	nM	546
